assay_system: SCRIB_2, Q14160
Sequence (Q14160 857-960): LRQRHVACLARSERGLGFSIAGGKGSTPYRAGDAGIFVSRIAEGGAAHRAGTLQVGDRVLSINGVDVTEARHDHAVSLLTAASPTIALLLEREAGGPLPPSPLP
test_method_notes: holdup assay
Design: key: below the threshold = too weak to quantify, mostly under pKd 3.1 to 4
condition_notes: plain residues with an end cap or a label only (N-terminal biotin on a linker: ado-ado)
result_type: pKd

As a guide, the following entries are already answered.
[[record]]
binder = "QRPYRRGSEI [KCNJ18, B7U540]"
result = 3.49

[[record]]
binder = "REEPDHSTEV [CCRL2, O00421]"
result = 4.32

[[record]]
binder = "STKRKLASAV [NCF1, P14598]"
result = "below the threshold"

[[record]]
binder = "NTANRRTTPV [CACNG2, Q9Y698]"
result = "below the threshold"


Give the measured pKd of KKMLQRRTLL [OR8G1, Q15617] .
below the threshold

Give the measured pKd of VLYPREGTEV [FOXI1, Q12951] .
4.16

Give the measured pKd of EIPAQSPTCV [FZD10, Q9ULW2] .
below the threshold

Give the measured pKd of EDGESWEYQI [TRPV6, Q9H1D0] .
below the threshold
